TEST SUMMARY: Human HepG2 cell viability assay in 384 well format
Format: toxicity, cell-based
Parameters: dose 125 nL, time 70.5 hour; concentration not given beside the values
CONDITION SET: HepG2 cells, read-out: Inhibition
cytotoxicity at 70.5 h values by entry
Give your result in % as a bare value.

Solved entries:
>>> print(df.to_string())
                                   compound          endpoint_label  unit_name  measured_value
0         CN(C)C(=O)c1cnc2n1CCN(Cc1ccsc1)C2  cytotoxicity at 70.5 h          %            2.92
1          CCOCCNc1nc(-c2ccncc2)nc2c1CCNCC2  cytotoxicity at 70.5 h          %           -4.23
2   CCn1nccc1CN(C)C(=O)Cn1cc2c(n1)c(C)nn2CC  cytotoxicity at 70.5 h          %           -1.76
3  O=C1NCCCCC1NC(=O)C1(Oc2ccc(Cl)cc2)CCNCC1 (centres undefined)  cytotoxicity at 70.5 h          %           -7.72
4      Cc1c(C(=O)N2CCC2)nnn1-c1ccc2ncccc2c1  cytotoxicity at 70.5 h          %           -3.53
5  COCC1c2nnn(CC3CC3)c2CCN1C(=O)c1cc(C)[nH]c1C (centres undefined)  cytotoxicity at 70.5 h          %           -9.95
6             COC(=O)NCC(=O)N(C)Cc1csc(C)n1  cytotoxicity at 70.5 h          %           -4.39
7        CCCN1CCN(c2ccc(-c3nc(C)no3)cn2)CC1  cytotoxicity at 70.5 h          %              13
8         COc1ccc(Br)cc1Cn1nc(C(N)=O)ccc1=O  cytotoxicity at 70.5 h          %           -6.15
9  CC(=O)N1CCCC1c1cccc(Cc2ccc(F)cc2)n1 (centres undefined)  cytotoxicity at 70.5 h          %           -14.3

# input Item `CC(C)=CCN1C[C@@H]2CN(C(=O)c3ccc(CO)cc3)C[C@]2(C(=O)O)C1` : provide cytotoxicity at 70.5 h
# output -12.2

# input Consider the compound `O=C(NCCc1cccs1)[C@H]1CO[C@H]2CCN(C3CCC3)C[C@H]2C1` and give its recorded cytotoxicity at 70.5 h.
# output -0.468

# input Give me measured cytotoxicity at 70.5 h, please, for this compound: COCc1ncc(CN2CCN(C)C(=O)C2C)cn1 (centres undefined)
# output -13.5

# input Recall and state the measured cytotoxicity at 70.5 h for Cc1nc(C(=O)N(CC2CCCO2)c2ccncc2)cs1 (centres undefined) .
# output -16.6

# input Output cytotoxicity at 70.5 h of Cc1n[nH]c(C2CN(C(=O)c3cc(C4CC4)[nH]n3)CCO2)n1 (centres undefined)
# output 4.51

# input Give recorded cytotoxicity at 70.5 h. `CN1CCC(NC(=O)Nc2cnn(-c3ccccc3Cl)c2)CC1`
# output -5.23

# input Determine from records and report cytotoxicity at 70.5 h for `CCn1cc(N)c(-c2nnc3n2CCCC3)n1`
# output -2.65

# input Tell us which cytotoxicity at 70.5 h value is on record for `CCc1nc(CC)n(CC(=O)N(CC)CC)n1`
# output -8.83

# input Using known records, supply cytotoxicity at 70.5 h for CC(O)CN1CCC(CNCc2cccc(C(=O)N(C)C)c2)CC1 (centres undefined)
# output 1.45

# input Dear colleague, please send me the reported cytotoxicity at 70.5 h for `O=C(O)C1CCN(C(=O)Cn2ccc3c(Cl)cccc32)CC1` when you can.
# output -12.6

# input In one line, give reported cytotoxicity at 70.5 h of the entry `COc1cc(CNCCc2cc(F)cc3c2OCOC3)cc(OC)c1` .
# output 1.52

# input Provide measured cytotoxicity at 70.5 h value, entry: COCCN1CC[C@@H]2OC(COCC(=O)N3CCCC3)CC[C@@H]21 (some centres undefined)
# output -3.03

# input Give cytotoxicity at 70.5 h for COc1cccc(N2CCC(CNc3cc(C)nc4ncnn34)C2)c1 (centres undefined)
# output -1.68

# input Return the recorded cytotoxicity at 70.5 h value; entry: CNC(C)Cc1ccccc1Sc1ccc(O)cc1 (centres undefined)
# output -8.32

---

TEST SUMMARY: Human HepG2 cell viability assay in 384 well format
Format: toxicity, cell-based
Design: dose 125 nL, time 70.5 hour; concentration not given beside the values
CONDITION SET: HepG2 cells, read-out: Inhibition
Quick list: cytotoxicity at 70.5 h per entry.
State just the number; it will be interpreted in %.

# example entries with known answers
>>> print(df.to_string())
                                   molecule          endpoint_label  measured_value
0  CCCc1n[nH]c(C2CN(C(=O)c3cccc4[nH]ncc34)CCO2)n1 (stereo not drawn)  cytotoxicity at 70.5 h           -3.81
1    O=C(c1ccccn1)N1CCc2ncnc(N3CCOCC3)c2CC1  cytotoxicity at 70.5 h           -5.19
2  CCCc1n[nH]c(C2CN(C(=O)c3cc(F)ccc3OC)CCO2)n1 (stereo not drawn)  cytotoxicity at 70.5 h           -23.2

# input Quick one: give measured cytotoxicity at 70.5 h for CN(C)c1cc(C2CCCN(S(=O)(=O)c3cn(C)cn3)C2)ccn1 (stereo not drawn)
# output -4.64

# input Quickly give me recorded cytotoxicity at 70.5 h for CCN(CC)C1CCN(C(=O)NCc2cccc(-n3ccnc3)c2)C1 (stereo not drawn)
# output -6.04

# input Give cytotoxicity at 70.5 h for the following molecule: CCC(=O)N1CCC2(CC1)CC(CC(=O)NC1CC1)c1ccccc1O2 (stereo not drawn)
# output 5.58

# input For the molecule `COCC(=O)N1CC(c2ccnc(Nc3cc(C(F)(F)F)ccn3)n2)C1` , report cytotoxicity at 70.5 h.
# output 10.3

# input State its cytotoxicity at 70.5 h: `c1coc(CN2CCC(c3ccc4c(c3)OCO4)CC2)c1`
# output -3.77

# input Using known records, supply cytotoxicity at 70.5 h for CC(C)CN1CCCC1c1cc[nH]n1 (stereo not drawn)
# output -1.98

# input Fill in reported cytotoxicity at 70.5 h for this entry: `CC(C)n1cc(N2Cc3nc(N4CCOCC4)ncc3C2=O)cn1`
# output 15.4

# input Write down cytotoxicity at 70.5 h measured for item `O=C1CO[C@@H]2CN(S(=O)(=O)c3ccc(F)cc3)C[C@H]2N1`
# output 15.2

---

TEST SUMMARY: Human HepG2 cell viability assay in 384 well format
Assay type: toxicity, cell-based
Parameters: dose 125 nL, time 70.5 hour; concentration not given beside the values
CONDITION SET: HepG2 cells, read-out: Inhibition
ENDPOINT LABEL: cytotoxicity at 70.5 h
Don't forget the unit after the number, please.

Some entries whose results are on file:
                                   molecule          endpoint_label  measured_value
0  COCC(=O)N1CC[C@H]2C[C@H](c3nc(C)no3)O[C@@H]2C1  cytotoxicity at 70.5 h          -7.44%
1  Cc1nc(CN(C)C2CCCN(Cc3noc(C4CC4)n3)C2)oc1C (configuration not stated)  cytotoxicity at 70.5 h           14.4%
2  COc1cc(C(=O)N2CCCC(n3cncn3)C2)ccc1C (configuration not stated)  cytotoxicity at 70.5 h          -8.45%
3  CC(C)c1cc(C(=O)N2CCN(c3ccncc3)CC2)n(C)n1  cytotoxicity at 70.5 h          -11.9%
4  O=C(c1cc(F)ccc1O)N1CCN(C2CCSC2)CC1 (configuration not stated)  cytotoxicity at 70.5 h          -8.37%

# input Return cytotoxicity at 70.5 h (reported value) for this molecule: `CSCC(=O)N(C)Cc1cnn(-c2ccc(F)cc2)c1`
# output 3.1%

# input Could you please provide reported cytotoxicity at 70.5 h for `CC(C)c1noc(-c2cccc(OCC(N)=O)c2)n1` ? Thanks!
# output -5.07%

# input For the molecule `O=C(c1ccc(O)c(Cl)c1)N1CCN(c2nccs2)CC1` , report cytotoxicity at 70.5 h.
# output -9.18%

---

TEST SUMMARY: Human HepG2 cell viability assay in 384 well format
Type: toxicity, cell-based
Design: dose 125 nL, time 70.5 hour; concentration not given beside the values
CONDITION SET: HepG2 cells, read-out: Inhibition
ENDPOINT LABEL: cytotoxicity at 70.5 h (%)
Return type: number; implicit unit %.

>>> print(df.to_string())
                                   compound  measured_value
0  Cc1noc(C)c1C(=O)N1CCCC1c1c(C)nn(C)c1Cl (stereo not given)             103

# input Input O=C(CNc1cc2c(cc1Br)OCCO2)NC1CCS(=O)(=O)C1 (stereo not given) , output reported cytotoxicity at 70.5 h.
# output -2.07

# input State its cytotoxicity at 70.5 h: `Cc1oc(CNC(=O)Cc2ccccc2Cl)cc1C(=O)O`
# output -7.56
